Target: Alkaline phosphatase, tissue-nonspecific isozyme (Homo sapiens, UniProt P05186)
Sequence (P05186 whole entry): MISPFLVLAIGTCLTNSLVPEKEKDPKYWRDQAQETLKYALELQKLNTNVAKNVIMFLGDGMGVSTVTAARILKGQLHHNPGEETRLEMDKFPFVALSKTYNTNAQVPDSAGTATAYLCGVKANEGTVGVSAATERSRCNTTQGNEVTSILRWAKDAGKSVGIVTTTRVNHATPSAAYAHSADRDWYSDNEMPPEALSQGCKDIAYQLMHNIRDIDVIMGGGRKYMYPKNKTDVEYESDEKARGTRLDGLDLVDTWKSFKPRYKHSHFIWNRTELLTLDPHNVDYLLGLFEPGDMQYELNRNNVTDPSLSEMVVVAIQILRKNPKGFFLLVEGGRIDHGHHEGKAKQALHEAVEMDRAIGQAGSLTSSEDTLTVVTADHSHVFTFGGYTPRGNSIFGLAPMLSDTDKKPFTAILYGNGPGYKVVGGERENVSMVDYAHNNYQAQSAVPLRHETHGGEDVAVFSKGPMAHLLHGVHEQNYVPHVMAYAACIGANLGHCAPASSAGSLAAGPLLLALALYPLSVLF
Test: potency against alkaline phosphatase TNAP – biochemical, luminescent, dose response, SAR follow-up (AID 1056)
The source made the active and inactive calls. No stated cut-off is given here; in the data, actives have a measured IC50 and inactives only a lower limit.
// one of active, inactive, no free text

{"columns": ["test smiles", "classification"],
 "data": [
  ["C=CCn1c(SCC(=O)c2ccc(O)c(O)c2)nnc1-c1cccc(C)c1", "active"],
  ["COc1ccc(Br)cc1S(=O)(=O)Nc1ccc2ccccc2c1", "inactive"]
]}

Check the results log: what was the call for `COc1ccc(Cc2nnc(N3C(=O)[C@H]4CC=CC[C@H]4C3=O)[nH]2)cc1` ?
active

The measurements presented in this section are drawn from ChEMBL document CHEMBL1201862.
